Cited source: the supplement of paper PMC10567573

B1: PTPRD (parent)
chain: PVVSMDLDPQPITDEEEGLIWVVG

# Variants of: B1
# test: protein stability index of a GFP-peptide fusion (GPS, HEK-293T) (PSI 1-6); higher = more stable;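 note: lentivirally expressed fusions sorted by FACS into six bins by GFP to DsRed ratio, PSI derived from sequencing read proportions per bin multiplied by bin number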
# condition-summary: c terminus: a fixed tail appended
Rule: 1 for protein stability index not less than 4, -1 for anything less.

A selection of reference data follows.
mutation-string	discrete-label
L7G	1
E15D	-1
G24D	1
D14E	-1
T13S	-1
I12F	-1

Kindly determine if protein stability index recorded for L19N is above or exactly 4.
1

Kindly determine if protein stability index recorded for I12N is above or exactly 4.
1

Kindly determine if protein stability index recorded for G24N is above or exactly 4.
1

Kindly determine if protein stability index recorded for W21I is above or exactly 4.
-1

Kindly determine if protein stability index recorded for V22G is above or exactly 4.
1
